Origin of measurements: patent US20260234232A1

- target-or-system: T1, human VEGFA165 (human, UniProt P15692-4 27-191)
- T1 construct: Bought protein from two suppliers, treated as one molecule; the supplier is named under assay; also called antigen VEGFA
- T1 sequence (P15692 other isoform, or with tags, fused parts or gaps limits assumed): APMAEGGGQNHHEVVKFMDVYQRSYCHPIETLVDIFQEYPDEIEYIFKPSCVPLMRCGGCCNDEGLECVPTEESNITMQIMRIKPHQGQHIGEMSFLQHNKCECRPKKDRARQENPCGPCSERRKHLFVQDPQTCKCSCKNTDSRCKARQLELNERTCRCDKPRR
- test-details: SPR Biacore 8K, VEGFA165 on CM5, nanobody analyte, 1:1 fit
Listed binders paired with reported Kd
Dear colleague, please return just the value in nM, with no unit written.

>>> numeric_result("V29 (VHH, Monovalent nanobody; tag not described here) VHH: QLQLVESGGGSVQPGGSLRLSCEVSGRTFSSYTMGWFRQAPGKEREFVVAISKGGYKYDSVSLEARFTISKDNTKNTVYLQMNSLKPEDTAVYYCAGTRAYGSSRLRLANTYEYWGQGTQVTVSS")
0.653
>>> numeric_result("2V30-9GS (VHH, Tandem bivalent nanobody) QLQLVESGGGSVQPGGSLRLSCEVSGRTFSSYTMGWFRQAPGKGREFVVAISKGGYKYDAVSLEARFTISKDNTKNTVYLQMNSLKPEDTAVYYCAATRAYGSSRLRLAKTYEYWGQGTQVTVSSGGGGSGGGSQLQLVESGGGSVQPGGSLRLSCEVSGRTFSSYTMGWFRQAPGKGREFVVAISKGGYKYDAVSLEARFTISKDNTKNTVYLQMNSLKPEDTAVYYCAATRAYGSSRLRLAKTYEYWGQGTQVTVSS")
0.0222
>>> numeric_result("2V1-9GS (VHH, Tandem bivalent nanobody) QLQLVESGGGSVQPGGSLRLSCEVSGRTFSSYTMGWFRQAPGKEREFVVAISKGGYKYDSVSLEARFTISKDNTKNTVYLQMNSLKPEDTAVYYCAATRAYGSSRLRLADTYEYWGQGTQVTVSSGGGGSGGGSQLQLVESGGGSVQPGGSLRLSCEVSGRTFSSYTMGWFRQAPGKEREFVVAISKGGYKYDSVSLEARFTISKDNTKNTVYLQMNSLKPEDTAVYYCAATRAYGSSRLRLADTYEYWGQGTQVTVSS")
0.0224

// recorded Kd for V43 (VHH, Monovalent nanobody; tag not described here, the ELISA detects a His tag) VHH: QLQLVESGGGSVQPGGSLRLSCEVSGRTFTSYTMGWFRQAPGKEREFVVAISKGGYKYDSVSLEARFTISKDNTKNTVYLQMNSLKPEDTAVYYCAGTRAYGSSRLRLANTYEYWGQGTQVTVSS : 0.116

// recorded Kd for V33 (VHH, Monovalent nanobody; tag not described here) VHH: QLQLVESGGGSVQPGGSLRLSCEVSGRTFSSYTMGWFRQAPGKEREFVVAISKGGYKYDSVSLEARFTISKDNTKNTVYLQMNSLKPEDTAVYYCAATRAYGSSRLRLAKTYEYWGQGTQVTVSS : 0.719
